Some compounds, each annotated with its measured TGI.
- Tested on: HS 578T breast
- assay_details: NCI tumour cell line growth inhibition, 48 h
Quick reminder: number only, in µM, skip the unit.

Clc1ccc2c(c1)-c1ccccc1C1=NCCN12 :: 11.8

Prompt: Find the recorded TGI belonging to OC(CNc1ccnc2cc(Cl)ccc12)CNC1CCCCC1 (stereo unspecified) and report it.
Response: 23.8

Prompt: Find the recorded TGI belonging to N#Cc1nc2cc(F)c(F)cc2nc1-c1ccc(Cl)cc1 and report it.
Response: 4.43

Prompt: Find the recorded TGI belonging to CCSC(=O)/C=C1\CN(C(=O)OC(C)(C)C)C1C(=O)OC(C)(C)C (stereo unspecified) and report it.
Response: 19.4

* * *

- Tested on: UO-31 renal
- assay_details: NCI tumour cell line growth inhibition, 48 h
// NO strictly below 30 µM in TGI; YES otherwise

Worked examples follow.
OCCNCCNc1c2ccccc2nc2oc3ccccc3c12 :: YES
CCSC(=O)/C=C1\CN(C(=O)OC(C)(C)C)C1C(=O)OC(C)(C)C (centres undefined) :: NO
COc1ccc2c(c1)CC1c3c(cc4c(c3-2)OCO4)CCN1C (centres undefined) :: YES

Prompt: Given COC(=O)c1c(O)ccc2c1c1c(n2-c2ccc(OC)cc2)C(=O)c2ccccc2C1=O , state whether its TGI is at least 30 µM.
Response: YES

* * *

- Tested on: HOP-92 NSCLC
- assay_details: NCI tumour cell line growth inhibition, 48 h
reported_property: TGI (µM)
Quick reminder: number only, in µM, skip the unit.

C[CH2][Sn]([Cl])([Cl])[CH2]C :: 36.2
C=C1C(=O)O[C@H]2[C@H]1CC/C(CNS(=O)(=O)c1cccc3ccccc13)=C\CC[C@@]1(C)O[C@@H]21 :: 2.8
OCCNCCNc1c2ccccc2nc2oc3ccccc3c12 :: 25.7

Next compound, please.
Prompt: Find the recorded TGI belonging to CC[C@](C)(O)C(=O)O[C@H]1C(=O)O[C@@H]2C[C@H]3C(C)=C[C@H](O)[C@@H](O)[C@]3(C)[C@H]3[C@@]4(O)OC[C@]32[C@@H]1[C@@H](C)[C@H]4O and report it.
Response: 83.1

* * *

Some compounds, each annotated with its measured TGI.
- System: NCI-H460 lung
- assay_details: NCI tumour cell line growth inhibition, 48 h

N#CC1=C(N)Oc2c(sc3c(F)cccc23)C1c1ccc(F)cc1 (stereo not drawn) :: 7.77 µM
O=C(/C=C/c1ccc(C(F)(F)F)cc1)c1ccc(Nc2nc(NCCO)nc(N3CCOCC3)n2)cc1 :: 4.44 µM
CC1=NN(C(=O)c2ccccc2O)C(c2ccccc2Cl)C1C(=O)Nc1ccccc1 (stereo not drawn) :: > 53.1 µM
OC(CNC1CCCC1)Cn1c2ccccc2c2ccccc21 (stereo not drawn) :: > 100 µM
Cc1cc(=O)oc2cc(OCc3nc4ccccc4c(=O)[nH]3)ccc12 :: > 100 µM
Cc1nn(-c2nc3ccccc3[nH]2)c2c1C(c1ccc3c(c1)OCO3)CC(=O)N2 (stereo not drawn) :: 5.55 µM
CC[C@](C)(O)C(=O)O[C@H]1C(=O)O[C@@H]2C[C@H]3C(C)=C[C@H](O)[C@@H](O)[C@]3(C)[C@H]3[C@@]4(O)OC[C@]32[C@@H]1[C@@H](C)[C@H]4O :: 31.3 µM
O=C(OC(/C=C/c1ccccc1)P1(=O)N(Cc2ccccc2)[C@@H]2CCCC[C@H]2N1Cc1ccccc1)c1ccccc1 (stereo partly drawn) :: > 27.3 µM
N#CN1CCC=C(c2cc3ccccc3[nH]2)C1 :: > 448 µM
CCCCCCCCCCCC[n+]1ccc(C(N)=O)cc1 :: 14.1 µM

Prompt: Kindly state the measured TGI obtained for [O-]c1c[n+](CC[n+]2cc([O-])on2)no1 with NCI-H460 lung.
Response: > 100 µM
